- targetDesc: Nuclear receptor subfamily 1 group I member 2 (Homo sapiens) (UniProt O75469)
- Sequence (O75469 whole entry, looked up): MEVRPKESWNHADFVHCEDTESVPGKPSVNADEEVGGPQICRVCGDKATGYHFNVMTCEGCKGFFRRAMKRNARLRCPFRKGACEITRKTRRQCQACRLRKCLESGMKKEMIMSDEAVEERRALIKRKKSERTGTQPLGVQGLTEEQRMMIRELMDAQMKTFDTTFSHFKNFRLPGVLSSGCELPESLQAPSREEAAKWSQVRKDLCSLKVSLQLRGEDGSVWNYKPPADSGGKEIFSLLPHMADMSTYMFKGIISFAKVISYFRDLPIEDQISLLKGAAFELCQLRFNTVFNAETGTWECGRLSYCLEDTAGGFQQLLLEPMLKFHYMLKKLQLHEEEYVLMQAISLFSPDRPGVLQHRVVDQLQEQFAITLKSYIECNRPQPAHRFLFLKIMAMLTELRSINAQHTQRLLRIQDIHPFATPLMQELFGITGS
- protocolDescription: Human pregnane X receptor (PXR) small molecule agonists, qHTS assay (AID 1346982); also: nearly all actives have a fitted effect of over 35% in size
- conditionInfo: PXR-Luc HepG2, CYP3A4 luciferase reporter, 24 h; series mostly up to 92.4 µM
Records with an inconclusive call do not appear. Activity calls are given as the source filed them. Calls follow the shape of the dose curve; as a rule, active = well fitted activation curve with a large enough effect in the repeat runs; inconclusive = weak or mixed curves; inactive = no such curve, though single readings can be large or run the other way.
Valid outcomes are listed here; reply with one: yes (1) for active, no (0) for inactive

# molecule, category
rows = [
    ("Nc1cc(=O)[nH]c(N)n1", "no (0)"),
    ("CC(C)NCCCC1(C(N)=O)c2ccccc2-c2ccccc21", "yes (1)"),
    ("c1ccc(CC2=NCCN2)cc1", "no (0)"),
    ("CC(=O)Nc1c(I)cc(I)c(C(=O)O)c1I", "no (0)"),
    ("CC(=O)CC(C)C", "no (0)"),
]

Assay result, entry CCCCC(CC)COC(=O)c1ccccc1O (stereo not drawn) — outcome?
no (0)

Assay result, entry CC(C(=O)O)c1ccc(CC2CCCC2=O)cc1 (stereo not drawn) — outcome?
no (0)

Assay result, entry CCOC(=O)c1ccc(C)cc1 — outcome?
no (0)
